- System: PC3 cells
- assayInfo: Cytotoxicity, Resazurin assay, hypoxic conditions
- Format: cell-based, human
- conditions: Homo sapiens, PC-3; PC3, hypoxic conditions (2% O2), 48 h, Resazurin; read-out: IC50 (µM) ± S.D. Hypoxia
- Excerpt: Initially, at least three consecutive cell passages were maintained in hypoxic conditions before starting any experiments.
measuredMetric: IC50

The measured IC50 associated with Nc1n[n+]([O-])c2ccccc2[n+]1[O-] [Tirapazamine, tirapazamine, reference compound] reads 20.4 µM

----------
- System: PC3 cells
- assayInfo: Cytotoxicity, Resazurin assay, normoxic conditions
- Type: cell-based, human
- conditions: Homo sapiens, PC-3; normoxic conditions (∼15% O2 level), 48 h, Resazurin; read-out: IC50 (μM) ± S.D. PC3
measuredMetric: IC50

The measured IC50 associated with Nc1n[n+]([O-])c2ccccc2[n+]1[O-] [Tirapazamine, tirapazamine, reference compound] reads ~100 µM
